Readings of pIC50 for the listed compounds
- test system: HCV NS3 protease type 1b/NS4A cofactor peptide (Hepatitis C virus genotype 1b, UniProt P26663)
- Construct: recombinant HCV NS3 protease (amino acid 1027 to 1206) was cloned in the pET11d bacterial expression vector; made in house; host or cells: E. coli BL21(DE3)pLysS
- Sequence (P26663 1027-1206, other chains not shown): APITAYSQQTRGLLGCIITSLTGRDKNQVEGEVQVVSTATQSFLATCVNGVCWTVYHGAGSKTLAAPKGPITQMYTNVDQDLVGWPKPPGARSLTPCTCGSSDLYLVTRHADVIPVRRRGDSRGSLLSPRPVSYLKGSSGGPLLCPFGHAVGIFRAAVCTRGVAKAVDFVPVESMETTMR
- experiment: Recombinant HCV NS3 protease/NS4A cofactor peptide radiometric assay
- Assay type: biochemical, HCV genotype 1b
- conditions used: Table 2, unmarked values: NS3 protease/NS4A cofactor peptide radiometric assay; read-out: IC50
*1 amine or outer side, *2 acyl side, *3 side chain or, on linkers, in order; H or OH if unused. Where a SMILES comes first, the peptide text is derived from it. [ ]: non-standard residue; d: D form. The star is where a group is joined. CH2(1-naphthyl) = c1ccc2c(C*)cccc2c1; Hyp = O=C(O)[C@@H]1C[C@@H](O)CN1; Chg = N[C@H](C(=O)O)C1CCCCC1; Suc = O=C(CCC(=O)[*:2])[*:1]; Nva = CCC[C@H](N)C(=O)O; Ac3c = NC1(C(=O)O)CC1; Boc = CC(C)(C)OC(=O)*
Keep it numeric: pIC50 is minus log10 of the concentration in mol/L.

Previously resolved entries follow.
[[record]]
compound = "CC(C)(C)OC(=O)N[C@H](C(=O)N[C@H](C(=O)N1C[C@H](OCc2cccc3ccccc23)C[C@H]1C(=O)NC1(C(=O)O)CC1)C1CCCCC1)C1CCCCC1 [compound 235] (Boc-[Chg][Chg][Hyp](CH2(1-naphthyl))[Ac3c]-OH)"
readout_label = "pIC50"
number = 4.92

[[record]]
compound = "CCC[C@H](NC(=O)[C@@H]1C[C@@H](OCc2cccc3ccccc23)CN1C(=O)[C@@H](NC(=O)[C@@H](NC(=O)CCC(=O)O)[C@@H](C)CC)C(C)C)C(=O)O [compound 221] (Suc-IV[Hyp](CH2(1-naphthyl))[Nva]-OH)"
readout_label = "pIC50"
number = 4.66

[[record]]
compound = "CC[C@H](C)[C@H](NC(=O)[C@H](NC(=O)[C@H](CC(=O)O)NC(C)=O)C(C)C)C(=O)N[C@H](C(=O)N1CCC[C@H]1C(=O)N[C@@H](CS)C(=O)O)C(C)C [compound 274] (Ac-D[dV]IVPC-OH)"
readout_label = "pIC50"
number = 5.12


Ask: Which pIC50 value belongs to CCC[C@H](NC(=O)[C@@H]1C[C@@H](OCc2cccc3ccccc23)CN1C(=O)[C@@H](NC(=O)[C@@H](NC(=O)[C@H](CC(=O)O)NC(C)=O)[C@@H](C)CC)C(C)C)C(=O)O [compound 219] (Ac-DIV[Hyp](CH2(1-naphthyl))[Nva]-OH) ?
Reply: 5.64
